The reported measurements were obtained from paper PMC9953353.

- System: Thi-5R-18 (DNA, aptamer) ATAGGAGTCACGACGACCAGAAGGGCAAATAGCATAATGGATCACATTAGATGAGCCCAGGCTATGTGCGTCTACCTCTTGACTAAT
- test.protocol: AuNP colorimetric aptasensor
- particulars: NaCl 0.25 M added for aggregation; 10^−7 M tested; response below one tenth of thiamethoxam at 10^−8 M
measured.metric: binding

O=[N+]([O-])N=C1NCCN1Cc1ccc(Cl)nc1	weak
CN/C(=N\[N+](=O)[O-])NCc1cnc(Cl)s1	weak
O=C(O)CNCP(=O)(O)O	weak
CNC(=N[N+](=O)[O-])NCC1CCOC1 (stereo not shown)	weak
